List of TGI values.
Tested on: SF-295 CNS
assayProcedure: NCI tumour cell line growth inhibition, 48 h
Give the quantity in µM, number only.

Observe how each entry below is paired with its result.
Name the recorded TGI for C[C@]12CC[C@@H]3c4ccc(O)cc4CC[C@H]3[C@@H]1CC[C@@H]2NS(=O)(=O)c1ccc(-c2ccccc2)cc1 .
13.2

Could you tell me which TGI is on file for CCCCC(=C=C1CCCCC1O)C1CCCN1C(=O)OC(C)(C)C (stereo not given) ?
28

Field request: TGI | item: O=[N+]([O-])c1cccc(-c2ncc(-c3ccc(Cl)cc3Cl)[nH]2)c1
5.28

---
Given O=C(CCN1CCCCC1CO)Nc1ccc2c(c1)C(=O)c1ccc(NC(=O)CCN3CCCCC3CO)cc1C2=O (stereo not given) , state its recorded TGI.
62.6

Entry CN(C)c1ccc(Sc2ccc3nc(N)nc(N)c3c2)cc1 : reported TGI = ?
14.1

Entry N#CC(=C=[N-])[n+]1ccc(Cl)cc1 : reported TGI = ?
38.9

What does the data say about its TGI? Entry: C=C1C(=O)O[C@H]2C(=O)[C@H](C)CCC[C@@](C)(O)/C=C\C[C@@]3(C)O[C@@H]3C[C@@H]12
17.5

Would you kindly share the measured TGI for Cc1csc(Nc2nc(-c3cccc(Cl)c3)nc(C(Cl)(Cl)Cl)n2)n1 ?
9.89
